Where do the numbers come from? From patent US10906894B2.

- ASSAYED SYSTEM: GPR119 (Homo sapiens, UniProt Q8TDV5)
- TEST SUMMARY: LANCE Ultra cAMP assay: stimulation of GPR119-mediated cAMP production in CHO cells stably expressing human GPR119 receptor
- Type: cell-based
- DETAILS: Table B-2 entries 15-39; modified protocol, 500 cells/well
Field: pEC50. Provide a value for each of the molecules that follow.
Please note pEC50 is a logarithmic value: minus log10 of concentration in mol/L. Answer with that number alone.

With GPR119 (Homo sapiens, UniProt Q8TDV5) as the test system, CC(C)c1cnc(N2CCC(COc3ccc(-c4ccc5c(c4)OCS5)cc3F)CC2)nc1 showed pEC50 of 7.98

With GPR119 (Homo sapiens, UniProt Q8TDV5) as the test system, CC(C)CC(=O)N1CCC(COc2ccc(-c3ccc4c(c3)OCS4)cc2F)CC1 showed pEC50 of 5.70

With GPR119 (Homo sapiens, UniProt Q8TDV5) as the test system, [O-][S@+]1COc2cc(-c3cnc(OCC4CCN(c5ncc(Cl)cn5)CC4)nc3)ccc21 showed pEC50 of 7.36

With GPR119 (Homo sapiens, UniProt Q8TDV5) as the test system, CC(C)c1cnc(N2CCC(COc3ccc(-c4ccc5c(c4)OC[S@+]5[O-])cc3F)CC2)nc1 showed pEC50 of 7.39

With GPR119 (Homo sapiens, UniProt Q8TDV5) as the test system, [O-][S@+]1COc2cc(-c3ccc(OC[C@H]4CCN(c5ncc(Cl)cn5)C4)c(F)c3)ccc21 showed pEC50 of 7.52

With GPR119 (Homo sapiens, UniProt Q8TDV5) as the test system, [O-][S@@+]1COc2cc(-c3ccc(OC[C@H]4CCN(c5ncc(Cl)cn5)C4)c(F)c3)ccc21 showed pEC50 of 8.34

With GPR119 (Homo sapiens, UniProt Q8TDV5) as the test system, CCc1cnc(N2CC[C@@H](COc3ccc(-c4ccc5c(c4)OC[S+]5[O-])cc3F)C2)nc1 (stereo partly drawn) showed pEC50 of 7.27

With GPR119 (Homo sapiens, UniProt Q8TDV5) as the test system, CCc1cnc(N2CCC(COc3ccc(-c4ccc5c(c4)OCS5)cc3F)CC2)nc1 showed pEC50 of 6.44

With GPR119 (Homo sapiens, UniProt Q8TDV5) as the test system, CCc1cnc(N2CC[C@@H](COc3ccc(-c4ccc5c(c4)OC[S@+]5[O-])cc3F)C2)nc1 showed pEC50 of 6.94

With GPR119 (Homo sapiens, UniProt Q8TDV5) as the test system, CCc1cnc(N2CC[C@H](COc3ccc(-c4ccc5c(c4)OC[S@@+]5[O-])cc3)C2)nc1 showed pEC50 of 7.99

With GPR119 (Homo sapiens, UniProt Q8TDV5) as the test system, COc1cnc(N2CCC(COc3ccc(-c4ccc5c(c4)OC[S@@+]5[O-])cc3F)CC2)nc1 showed pEC50 of 8.43

With GPR119 (Homo sapiens, UniProt Q8TDV5) as the test system, [O-][S@+]1COc2cc(-c3ccc(OCC4CCN(c5ncc(Cl)cn5)CC4)c(F)c3)ccc21 showed pEC50 of 8.77

With GPR119 (Homo sapiens, UniProt Q8TDV5) as the test system, CCc1cnc(N2CCC(COc3ccc(-c4ccc5c(c4)OC[S@@+]5[O-])cc3F)CC2)nc1 showed pEC50 of 8.64

With GPR119 (Homo sapiens, UniProt Q8TDV5) as the test system, CCc1ccnc(N2CC[C@H](COc3ccc(-c4ccc5c(c4)OC[S@+]5[O-])cc3F)C2)n1 showed pEC50 of 7.89

With GPR119 (Homo sapiens, UniProt Q8TDV5) as the test system, CCc1ccnc(N2CCC(COc3ccc(-c4ccc5c(c4)OC[S+]5[O-])cc3F)CC2)n1 (stereo not drawn) showed pEC50 of 7.56

With GPR119 (Homo sapiens, UniProt Q8TDV5) as the test system, COc1cnc(N2CCC(COc3ccc(-c4ccc5c(c4)OCS5)cc3F)CC2)nc1 showed pEC50 of 5.54

With GPR119 (Homo sapiens, UniProt Q8TDV5) as the test system, CCc1cnc(N2CC[C@H](COc3ccc(-c4ccc5c(c4)OC[S@@+]5[O-])cc3F)C2)nc1 showed pEC50 of 7.75

With GPR119 (Homo sapiens, UniProt Q8TDV5) as the test system, CCc1cnc(N2CC[C@H](COc3ccc(-c4ccc5c(c4)OC[S@+]5[O-])cc3F)C2)nc1 showed pEC50 of 7.69

With GPR119 (Homo sapiens, UniProt Q8TDV5) as the test system, CCc1ccnc(N2CC[C@H](COc3ccc(-c4ccc5c(c4)OC[S@@+]5[O-])cc3F)C2)n1 showed pEC50 of 7.50

With GPR119 (Homo sapiens, UniProt Q8TDV5) as the test system, COc1cnc(N2CCC(COc3ccc(-c4ccc5c(c4)OC[S@+]5[O-])cc3F)CC2)nc1 showed pEC50 of 7.39

With GPR119 (Homo sapiens, UniProt Q8TDV5) as the test system, CCc1cnc(N2CC[C@@H](COc3ccc(-c4ccc5c(c4)OC[S@@+]5[O-])cc3F)C2)nc1 showed pEC50 of 7.49

With GPR119 (Homo sapiens, UniProt Q8TDV5) as the test system, CCc1cnc(N2CCC(COc3ccc(-c4ccc5c(c4)OC[S@+]5[O-])cc3F)CC2)nc1 showed pEC50 of 7.71

With GPR119 (Homo sapiens, UniProt Q8TDV5) as the test system, CC(C)c1cnc(N2CCC(COc3ccc(-c4ccc5c(c4)OC[S@@+]5[O-])cc3F)CC2)nc1 showed pEC50 of 8.00

###

- ASSAYED SYSTEM: GPR119 (Homo sapiens)
- Sequence (Q8TDV5 1-335): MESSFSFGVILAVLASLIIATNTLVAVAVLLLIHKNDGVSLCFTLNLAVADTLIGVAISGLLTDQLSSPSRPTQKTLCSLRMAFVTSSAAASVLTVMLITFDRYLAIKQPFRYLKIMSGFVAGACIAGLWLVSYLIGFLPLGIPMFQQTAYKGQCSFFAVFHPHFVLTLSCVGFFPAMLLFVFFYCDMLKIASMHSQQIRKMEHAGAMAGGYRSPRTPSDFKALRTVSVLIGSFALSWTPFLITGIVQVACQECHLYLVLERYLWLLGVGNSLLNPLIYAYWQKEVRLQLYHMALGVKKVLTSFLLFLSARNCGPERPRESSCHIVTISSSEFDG
- TEST SUMMARY: LANCE Ultra cAMP assay: stimulation of GPR119-mediated cAMP production in CHO cells stably expressing human GPR119 receptor
- Format: cell-based
- DETAILS: CHO; Table B-2 entries 15-39; modified protocol, 500 cells/well; read-out: % cAMP Max.
Field: Emax. Provide a value for each of the compounds that follow.
Respond numerically; units are % and should not be typed.

// Emax value for CC(C)CC(=O)N1CCC(COc2ccc(-c3ccc4c(c3)OCS4)cc2F)CC1 [Example B-40] : 50

// Emax value for [O-][S@@+]1COc2cc(-c3ccc(OC[C@H]4CCN(c5ncc(Cl)cn5)C4)c(F)c3)ccc21 [Example B-86] : 93

// Emax value for COc1cnc(N2CCC(COc3ccc(-c4ccc5c(c4)OCS5)cc3F)CC2)nc1 [Example B-39] : 64

// Emax value for CCc1cnc(N2CCC(COc3ccc(-c4ccc5c(c4)OCS5)cc3F)CC2)nc1 [Example B-37] : 79

// Emax value for CCc1ccnc(N2CCC(COc3ccc(-c4ccc5c(c4)OC[S+]5[O-])cc3F)CC2)n1 (stereo not shown) [Example B-35] : 61

// Emax value for CC(C)c1cnc(N2CCC(COc3ccc(-c4ccc5c(c4)OC[S@@+]5[O-])cc3F)CC2)nc1 [Example B-46] : 82

// Emax value for CCc1cnc(N2CC[C@@H](COc3ccc(-c4ccc5c(c4)OC[S+]5[O-])cc3F)C2)nc1 (stereo partly shown) [Example B-67] : 74

// Emax value for CCc1ccnc(N2CC[C@H](COc3ccc(-c4ccc5c(c4)OC[S@@+]5[O-])cc3F)C2)n1 [Example B-84] : 92

// Emax value for CCc1cnc(N2CCC(COc3ccc(-c4ccc5c(c4)OC[S@@+]5[O-])cc3F)CC2)nc1 [Example B-45] : 68

// Emax value for [O-][S@+]1COc2cc(-c3ccc(OC[C@H]4CCN(c5ncc(Cl)cn5)C4)c(F)c3)ccc21 [Example B-81] : 95

// Emax value for CCc1cnc(N2CC[C@@H](COc3ccc(-c4ccc5c(c4)OC[S@@+]5[O-])cc3F)C2)nc1 [Example B-77] : 81

// Emax value for [O-][S@+]1COc2cc(-c3ccc(OCC4CCN(c5ncc(Cl)cn5)CC4)c(F)c3)ccc21 [Example B-59] : 70

// Emax value for CCc1cnc(N2CC[C@H](COc3ccc(-c4ccc5c(c4)OC[S@+]5[O-])cc3F)C2)nc1 [Example B-76] : 80

// Emax value for COc1cnc(N2CCC(COc3ccc(-c4ccc5c(c4)OC[S@+]5[O-])cc3F)CC2)nc1 [Example B-51] : 70

// Emax value for CC(C)c1cnc(N2CCC(COc3ccc(-c4ccc5c(c4)OCS5)cc3F)CC2)nc1 [Example B-38] : 78

// Emax value for CCc1cnc(N2CC[C@H](COc3ccc(-c4ccc5c(c4)OC[S@@+]5[O-])cc3)C2)nc1 [Example B-91] : 93

// Emax value for CCc1cnc(N2CC[C@@H](COc3ccc(-c4ccc5c(c4)OC[S@+]5[O-])cc3F)C2)nc1 [Example B-78] : 72

// Emax value for [O-][S@+]1COc2cc(-c3cnc(OCC4CCN(c5ncc(Cl)cn5)CC4)nc3)ccc21 [Example B-62] : 66

// Emax value for CCc1cnc(N2CC[C@H](COc3ccc(-c4ccc5c(c4)OC[S@@+]5[O-])cc3F)C2)nc1 [Example B-75] : 88
